For each entry below, report its t1/2 value.
# Experimental System: T1, full-length hANGPTL4 (amino acid residues 26-406 of SEQ ID NO:476) with a C-terminal hexa-histidine tag (human, UniProt Q9BY76 26-406)
# T1 construct: also called hANGPTL4-His; hANGPTL4(26-406)-His
# T1 sequence: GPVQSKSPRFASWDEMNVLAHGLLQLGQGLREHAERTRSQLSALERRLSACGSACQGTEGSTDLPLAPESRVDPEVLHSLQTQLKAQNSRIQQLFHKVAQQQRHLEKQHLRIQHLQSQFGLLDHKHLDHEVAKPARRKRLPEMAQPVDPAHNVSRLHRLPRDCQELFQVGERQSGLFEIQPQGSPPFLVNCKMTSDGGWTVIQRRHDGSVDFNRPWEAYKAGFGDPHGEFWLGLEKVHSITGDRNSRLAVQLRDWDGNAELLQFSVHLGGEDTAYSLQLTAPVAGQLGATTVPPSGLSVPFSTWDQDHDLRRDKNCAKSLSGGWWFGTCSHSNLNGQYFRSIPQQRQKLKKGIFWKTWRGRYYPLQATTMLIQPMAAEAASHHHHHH
# Test Method Notes: SPR (Biacore), 25° C., pH 7.2, antigen amino-coupled 450 RU

Please look at the items below and tell me t1/2 for each one, in order.
1. H1H284P (antibody, V domains shown, also called entire H1H284 mAb; Full mAb) VH: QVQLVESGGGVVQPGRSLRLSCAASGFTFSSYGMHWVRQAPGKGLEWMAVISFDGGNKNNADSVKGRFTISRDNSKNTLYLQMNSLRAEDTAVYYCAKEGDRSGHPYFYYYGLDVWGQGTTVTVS VL: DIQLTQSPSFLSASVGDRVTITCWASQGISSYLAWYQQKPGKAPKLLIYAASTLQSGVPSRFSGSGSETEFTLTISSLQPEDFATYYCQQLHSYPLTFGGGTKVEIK
2. H1H268P (antibody, V domains shown, also called entire H1H268 mAb; Full mAb) VH: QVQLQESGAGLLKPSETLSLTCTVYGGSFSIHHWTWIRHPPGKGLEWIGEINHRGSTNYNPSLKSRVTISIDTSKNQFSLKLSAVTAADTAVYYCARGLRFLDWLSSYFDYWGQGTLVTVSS VL: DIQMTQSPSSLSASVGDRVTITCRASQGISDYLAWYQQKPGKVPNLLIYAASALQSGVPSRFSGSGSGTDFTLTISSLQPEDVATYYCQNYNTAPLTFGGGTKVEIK
3. H1H268P Fab fragment (Fab, V domains shown, Fab made by papain digestion of H1H268P (IgG1); also called H1H268 Fab) VH: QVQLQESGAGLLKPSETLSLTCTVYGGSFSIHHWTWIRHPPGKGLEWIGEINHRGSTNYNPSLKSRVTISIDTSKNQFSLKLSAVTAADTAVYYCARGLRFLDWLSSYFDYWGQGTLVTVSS VL: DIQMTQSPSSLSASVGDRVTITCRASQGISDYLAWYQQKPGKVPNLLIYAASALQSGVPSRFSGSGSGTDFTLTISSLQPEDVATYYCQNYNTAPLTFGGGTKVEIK
4. H1H284P Fab fragment (Fab, V domains shown, Fab made by papain digestion of H1H284P (IgG1); also called H1H284 Fab) VH: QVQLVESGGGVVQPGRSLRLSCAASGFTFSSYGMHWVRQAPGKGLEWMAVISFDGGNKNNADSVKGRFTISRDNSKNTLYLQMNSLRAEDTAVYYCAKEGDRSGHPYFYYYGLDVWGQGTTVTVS VL: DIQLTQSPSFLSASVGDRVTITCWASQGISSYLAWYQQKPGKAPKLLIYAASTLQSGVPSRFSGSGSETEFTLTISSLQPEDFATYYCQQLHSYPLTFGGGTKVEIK

Reply:
["130 min", "58 min", "1 min", "34 min"]
